These data points were gathered from the RNAGym collection of RNA variant scans (doi:10.1073/pnas.2313332121).

B1: TPR 5TU (parent)
chain: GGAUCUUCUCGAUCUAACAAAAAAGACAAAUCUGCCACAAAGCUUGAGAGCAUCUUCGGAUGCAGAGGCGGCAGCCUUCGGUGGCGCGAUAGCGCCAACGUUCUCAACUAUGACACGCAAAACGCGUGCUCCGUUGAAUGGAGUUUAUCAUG

variants of: B1; assay: polymerase ribozyme fitness, log enrichment relative to wild type (log ratio); higher = more active; in vitro selection for triplet polymerase activity
Fewer inactive variants are shown than the library holds.
measurement name: polymerase ribozyme fitness (log ratio)

{"variant label": "C8A A49G G74A G86U G141U U148G", "reported measurement": "≤ -4.2"}
{"variant label": "A24G G74A C93G G140C U151G", "reported measurement": "≤ -4.2"}
{"variant label": "U6G C51U G84A U146G", "reported measurement": -1.28}
{"variant label": "U33A G50C A52C C87A C96U C105U U127G U144A", "reported measurement": "≤ -4.2"}
{"variant label": "A24U C38A G50U U55A U61G G68C G84U G141A U151G", "reported measurement": "≤ -4.2"}
{"variant label": "U9G A29C C32G G58C C76A C79A C118G G141C G143A", "reported measurement": "≤ -4.2"}
{"variant label": "U31A A52C G58C G83A", "reported measurement": -4.11}
{"variant label": "G84U G88A A120C", "reported measurement": "≤ -4.2"}
{"variant label": "U53A A60U C63U C75U U77G C93G A122G C149G U151A", "reported measurement": "≤ -4.2"}
{"variant label": "U13A C57U A73C C96G", "reported measurement": "≤ -4.2"}
{"variant label": "C8G C125U G141C", "reported measurement": "≤ -4.2"}
{"variant label": "A49C C57U", "reported measurement": -3.72}
{"variant label": "C5A G92A", "reported measurement": -1.42}
{"variant label": "C63G A110U G136U U148A", "reported measurement": "≤ -4.2"}
{"variant label": "C5G A28C A73G", "reported measurement": "≤ -4.2"}
{"variant label": "G25C A41C U55A U61A C116U U144A", "reported measurement": "≤ -4.2"}
{"variant label": "U53A C76A", "reported measurement": -2.19}
{"variant label": "C43U G62A A119U U134A", "reported measurement": "≤ -4.2"}
{"variant label": "U6G A121U", "reported measurement": -0.506}
{"variant label": "C95U A98C", "reported measurement": -1}
{"variant label": "A26C A91G A121C U139C", "reported measurement": "≤ -4.2"}
{"variant label": "A22C C38U G58U A60C C85A C87U G133A G140U", "reported measurement": "≤ -4.2"}
